tested on: Mannheimia haemolytica; assay: minimum inhibitory concentration (MIC); details: isolate (source animal id): 291
ASSAY METRIC: minimum inhibitory concentration

Example cases with answers are listed next.
CCN1CCN(c2cc3c(cc2F)c(=O)c(C(=O)O)cn3C2CC2)CC1 [Enrofloxacin]	≤ 0.12 µg/mL
CC[C@H]1OC(=O)C[C@@H](O)[C@H](C)[C@@H](O[C@@H]2O[C@H](C)[C@@H](O[C@H]3C[C@@](C)(O)[C@@H](O)[C@H](C)O3)[C@H](N(C)C)[C@H]2O)[C@@H](CC=O)C[C@@H](C)C(=O)/C=C/C(C)=C/[C@@H]1CO[C@@H]1O[C@H](C)[C@@H](O)[C@@H](OC)[C@H]1OC [Tylosin]	> 32 µg/mL
CN(C)[C@@H]1C(O)=C(C(N)=O)C(=O)[C@@]2(O)C(O)=C3C(=O)c4c(O)cccc4[C@@](C)(O)[C@H]3C[C@@H]12 [Tetracycline]	≤ 0.5 µg/mL

Next compound, please.
Notebook entry, Mannheimia haemolytica assay: minimum inhibitory concentration of CS(=O)(=O)c1ccc([C@@H](O)[C@@H](CF)NC(=O)C(Cl)Cl)cc1 [Florfenicol] = ?
0.5 µg/mL

----------
tested on: Pasteurella multocida; assay: minimum inhibitory concentration (MIC); conditions: isolate (source animal id): 313
Reported minimum inhibitory concentration values are given for each entry in this list.

CC[C@H]1OC(=O)C[C@@H](O)[C@H](C)[C@@H](O[C@@H]2O[C@H](C)[C@@H](O)[C@H](N(C)C)[C@H]2O)[C@@H](CCN2CCCCC2)C[C@@H](C)C(=O)/C=C/C(C)=C/[C@@H]1CN1CCCCC1	> 16 µg/mL
CC1(C)S[C@@H]2[C@H](NC(=O)[C@H](N)c3ccccc3)C(=O)N2[C@H]1C(=O)O	≤ 0.25 µg/mL
CNC(C)C1CCC(N)C(OC2C(N)CC(N)C(OC3OCC(C)(O)C(NC)C3O)C2O)O1 (centres undefined)	2 µg/mL

Next compound, please.
Reported minimum inhibitory concentration, compound `CN1C[C@@H]2C[C@H]1CN2c1cc2c(cc1F)c(=O)c(C(=O)O)cn2C1CC1` : ____
> 1 µg/mL

----------
Reported minimum inhibitory concentration values are given for each entry in this list.
test system: Mannheimia haemolytica; assay: minimum inhibitory concentration (MIC); settings: isolate (source animal id): 309

CC[C@H]1OC(=O)C[C@@H](O)[C@H](C)[C@@H](O[C@@H]2O[C@H](C)[C@@H](O[C@H]3C[C@@](C)(O)[C@@H](O)[C@H](C)O3)[C@H](N(C)C)[C@H]2O)[C@@H](CC=O)C[C@@H](C)C(=O)/C=C/C(C)=C/[C@@H]1CO[C@@H]1O[C@H](C)[C@@H](O)[C@@H](OC)[C@H]1OC	> 32 µg/mL
CC1(C)S[C@@H]2[C@H](NC(=O)[C@H](N)c3ccccc3)C(=O)N2[C@H]1C(=O)O	≤ 0.25 µg/mL

Reported minimum inhibitory concentration, compound `CCCN1C[C@H](C)[C@@H](O)[C@](C)(O)[C@@H](CC)OC(=O)[C@H](C)[C@@H](O[C@H]2C[C@@](C)(OC)[C@@H](O)[C@H](C)O2)[C@H](C)[C@@H](O[C@@H]2O[C@H](C)C[C@H](N(C)C)[C@H]2O)[C@](C)(O)C[C@H]1C` : ____
≤ 1 µg/mL
